test system: MDA-MB-231 breast; assay: NCI tumour cell line growth inhibition, 48 h
Can you tell me TGI for the items I'm about to list?

Entry C=C1c2[nH]c3ccccc3c2C2C(CC)C1CCN2C (centres undefined) under MDA-MB-231 breast had TGI of > 100 µM

Entry O=C(O)c1ccc(S(=O)(=O)Nc2ccc3oc4c(c3c2)C(=O)CCC4)cc1 under MDA-MB-231 breast had TGI of > 100 µM

Entry CC(=O)Oc1ccc2c(c1)oc1c3ccc(OC(C)=O)cc3n(C)c(=O)c21 under MDA-MB-231 breast had TGI of > 100 µM

Entry COC(C(=O)C(O)C(C)O)C1CC2C=C3C=C(OC4CC(OC5CC(O)C(OC)C(C)O5)C(OC(C)=O)C(C)O4)C(C)C(=O)C3=C(O)C2=C(O)C1OC1CC(OC2CC(OC3CC(C)(O)C(OC(=O)C(C)C)C(C)O3)C(O)C(C)O2)C(O)C(C)O1 (centres undefined) under MDA-MB-231 breast had TGI of < 0.01 µM

---

system: HS 578T breast; experiment: NCI tumour cell line growth inhibition, 48 h
Can you tell me TGI for the items I'm about to list?

Entry CCCCc1ccc(Nc2nc(=S)c3[nH]cnc3[nH]2)cc1 under HS 578T breast had TGI of 49.3 µM

Entry Cc1ccc2c(n1)C(=O)C=CC2=O under HS 578T breast had TGI of > 78.5 µM

Entry CC(=O)Oc1cc2c(c3ncccc13)OC(C)(C)C2 under HS 578T breast had TGI of 24.9 µM

Entry Cc1cc(O)c(C2=NN(c3ccc(S(N)(=O)=O)cc3)C(c3ccc(N(C)C)cc3)C2)c(C)c1Cl (stereo not given) under HS 578T breast had TGI of 62.3 µM

Entry Cn1c(-c2cccs2)cc(-c2cccs2)c1-c1ccco1 under HS 578T breast had TGI of > 91.7 µM

Entry Cc1nc([C@H]2CC[C@H]3[C@@H]4CCC5=CC(=O)CC[C@]5(C)[C@H]4CC[C@]23C)cs1 under HS 578T breast had TGI of > 100 µM

Entry O=c1c(O)cccc2cc(O)c(O)c(O)c12 under HS 578T breast had TGI of > 100 µM

Entry N#CC(C#N)N=Nc1ccc(Br)cc1 under HS 578T breast had TGI of > 73.8 µM

Entry COC1=CC23CCCN2CCc2cc4c(cc2C3C1O)OCO4 (stereo not given) under HS 578T breast had TGI of > 100 µM

Entry c1ccc(P(CCP(c2ccccn2)c2ccccn2)c2ccccc2)cc1 under HS 578T breast had TGI of > 100 µM

Entry COc1cc2c3c(n(CCCNCCCNCCCNCCCN)c(=O)c2cc1OC)-c1cc2c(cc1C3=O)OCO2 under HS 578T breast had TGI of 8.42 µM

Entry CC1(C)CC23CC(C)(C)c4cccc(c42)OCc2ccc4ccc5ccc(nc5c4n2)COc2cccc1c23 under HS 578T breast had TGI of > 50 µM

Entry CC(C)CC(=O)Nc1n[nH]c2c1CN(C(=O)C1CCN(C)CC1)C2(C)C under HS 578T breast had TGI of > 10 µM

Entry COc1cc(/C=C/c2cc(/C=C/c3ccc(O)c(OC)c3)nc(N)n2)ccc1O under HS 578T breast had TGI of 2.99 µM

Entry Cc1ccc(S(=O)(=O)N2C[C@](O)(c3ccccc3)[C@H]2C)cc1 under HS 578T breast had TGI of > 100 µM

Entry O=C(Nc1ccccc1O)c1ccc(CNc2ccnc(C(F)(F)F)c2)cc1 under HS 578T breast had TGI of 32.9 µM

Entry CC(=O)N1c2ccccc2NC2=C(C(=O)N(Cc3ccccc3)C2(C)C)C1c1ccco1 (stereo not given) under HS 578T breast had TGI of > 21.9 µM

Entry COc1cc(C)cc2c1c(=O)c1ccccc1n2C under HS 578T breast had TGI of 78.9 µM

Entry COc1cc(C2SC(N)=Nc3c2c(C)nn3C(=O)c2ccccc2O)ccc1O (stereo not given) under HS 578T breast had TGI of > 10 µM

Entry C=C(C)CC1(O)C(=O)C(OCC)=C1OCC (stereo not given) under HS 578T breast had TGI of > 100 µM

---

system: SF-539 CNS; experiment: NCI tumour cell line growth inhibition, 48 h
Measured Endpoint: TGI

Data point: Cc1ccccc1C(=O)Oc1ccc(O)cc1 ; TGI = > 100 µM

Data point: C/C=C1/CN2CCC3(O)c4ccccc4N4C=C(C(=O)OC)C1CC2C43O (centres undefined) ; TGI = > 100 µM

Data point: COc1ccc(N/N=C(\CCN(C)C)c2ccccc2)cc1 ; TGI = 3.69 µM

Data point: O=C(/C=C1\C[C@H]2C=Nc3ccccc3C(=O)N2C1)NCCCCNC(=O)/C=C1\C[C@H]2C=Nc3ccccc3C(=O)N2C1 ; TGI = 30.5 µM

Data point: COc1cc(C2SC(N)=Nc3c2c(C)nn3C(=O)c2ccccc2O)ccc1O (centres undefined) ; TGI = > 2.31 µM

Data point: CN(C)CCSc1cccc(-c2cc(-c3cccc(SCCN(C)C)c3)nc(SCCN(C)C)n2)c1 ; TGI = 3.19 µM

Data point: Cc1nc(CN2CCCCC2)c(O)c(=O)[nH]1 ; TGI = > 100 µM

Data point: O=C1NC(N2CCCCC2)=N/C1=C\c1cccs1 ; TGI = > 100 µM

Data point: Cc1ccc2c(sc(-c3ccc4c(c3)sc(-c3ccc5c(c3)sc(-c3ccc(N(C)C)cc3)[n+]5C)[n+]4C)[n+]2C)c1S(=O)(=O)O (tested in a mixture with another compound) ; TGI = > 100 µM

---

Can you tell me TGI for the items I'm about to list?
test system: NCI-H23 lung; experiment: NCI tumour cell line growth inhibition, 48 h
Where a SMILES comes first, the peptide text is derived from it. [ ]: non-standard residue; d: D form. The star is where a group is joined. Tyr(3-Br) = N[C@@H](Cc1ccc(O)c(Br)c1)C(=O)O; Boc = CC(C)(C)OC(=O)*
# value in µM; strip the unit string

Data point: COC(=O)[C@H](Cc1ccc(O)c(Br)c1)NC(=O)[C@H](Cc1ccc(O)cc1)NC(=O)OC(C)(C)C (Boc-Tyr-[Tyr(3-Br)]-OMe) ; TGI = 71.5

Data point: CN(C)c1ncc(-c2ccc(C(F)(F)F)cc2)c(NC2CCCCCC2)n1 ; TGI = 57.3

Data point: C/C1=C/C(C)CC(C)OC(=O)C(C)NC(=O)C(Cc2ccc(O)c(I)c2)N(C)C(=O)C(C)NC(=O)C(C)C1 (configuration not stated) ; TGI = 44.4

---

test system: SF-539 CNS; assay: NCI tumour cell line growth inhibition, 48 h
Measured Endpoint: TGI

Data point: CC(C)(C)c1cc2c(O)c(c1)Cc1cc(C(C#N)(Cc3ccc4ccccc4c3)Cc3ccc4ccccc4c3)cc(c1O)Cc1cc(C(C)(C)C)cc(c1O)Cc1cc(C(C#N)(Cc3ccc4ccccc4c3)Cc3ccc4ccccc4c3)cc(c1O)C2 ; TGI = > 100 µM

Data point: O=C(Cc1csc(-c2nc(CC(=O)NNc3ccccc3)cs2)n1)NNc1ccccc1 ; TGI = > 100 µM

Data point: CN(CCc1ccccn1)c1nc(=[N+](C)C)ss1 ; TGI = > 100 µM

Data point: C/C(=N\Nc1nc2ccccc2n1C)c1cnccn1 ; TGI = > 100 µM

Data point: O=[N+]([O-])c1ccccc1NC1c2ccccc2Oc2ccccc21 ; TGI = > 100 µM

Data point: O=C(O)c1cc2ccccc2c(N=Nc2cc(C(F)(F)F)ccc2Cl)c1O ; TGI = > 100 µM

Data point: Cc1nc([C@H]2CC[C@H]3[C@@H]4CCC5=CC(=O)CC[C@]5(C)[C@H]4CC[C@]23C)cs1 ; TGI = > 100 µM

Data point: COC(=O)CCC(=O)Nc1cc(Cl)ccc1Cl ; TGI = > 100 µM

Data point: CC(=O)OC1CC2Oc3ccc(C)cc3C(C)(O2)C1=O (configuration not stated) ; TGI = > 100 µM

Data point: Oc1ccccc1C=Nc1ccc(-c2nc3ccccc3[nH]2)cc1 ; TGI = > 100 µM

Data point: CC1(C)CC23CC(C)(C)c4cccc(c42)OCc2ccc4ccc5ccc(nc5c4n2)COc2cccc1c23 ; TGI = > 50 µM

Data point: C=C(C)C1CC/C(C)=C/CC[C@]2(C)O[C@H]2CC/C(COC(C)=O)=C\[C@@H]1O (some centres not stated) ; TGI = > 50 µM

---

system: NCI-H23 lung; test: NCI tumour cell line growth inhibition, 48 h
Can you tell me TGI for the items I'm about to list?

Data point: N#CC(C#N)=C(N)/C(C#N)=C/c1ccc2ccccc2n1 ; TGI = > 100 µM

Data point: Cc1ccc(C2NC(=O)c3ccccc3N2)s1 (stereo unspecified) ; TGI = 58.2 µM

Data point: Cc1ccc(S(=O)(=O)N2C[C@](O)(c3ccccc3)[C@H]2C)cc1 ; TGI = > 100 µM

Data point: CC(=O)O[C@@H]1[C@@H](O)C2=C3[C@]4(C)[C@@H]1C(C)(C)C(=O)C[C@@H]4[C@]3(O)[C@H](OC(C)=O)[C@@]1(C[C@@H]1C)C2=O ; TGI = > 100 µM

Data point: CC(=O)Oc1cc2c(c3ncccc13)OC(C)(C)C2 ; TGI = > 100 µM

Data point: CCCCc1ccc(Nc2nc(=S)c3[nH]cnc3[nH]2)cc1 ; TGI = 51.7 µM
